Hello, the source for this data is ChEMBL document CHEMBL3751747, in case you need it.

System: Heart
experiment-notes: Positive inotropic activity in Sprague-Dawley rat heart assessed as left ventricular systolic pressure at 10 umol/L (reference value: 20.7 +/- 7.61 to 25.86 +/- 9.41 mmHg)
Assay type: functional, Heart left ventricle
Readings of Activity for the listed compounds

compound	target-or-test-system	Activity / mmHg
Cc1nc(CO[C@@H]2O[C@H](C(=O)O)[C@@H](O)[C@H](O)[C@H]2O)c(C)nc1CO (stereo in doubt; 2)	Heart	22.66
CC(=O)NC(CSCc1nc(C)c(CO)nc1C)C(=O)O (stereo in doubt; 4)	Heart	21.69
Cc1nc(C(=O)O)c(C)nc1CO	Heart	27.85
Cc1nc(CSCC(N)C(=O)O)c(C)nc1CO (stereo in doubt; 3)	Heart	25.68

----------
Tested on: Heart
experiment-notes: Positive inotropic activity in Sprague-Dawley rat heart assessed as left ventricular diastolic pressure at 10 umol/L (reference value: -0.04 +/- 0.33 to -0.67 +/- 0.69 mmHg)
Type: functional, Heart left ventricle
Readings of Activity for the listed compounds

compound	target-or-test-system	output-unit	Activity
Cc1nc(C(=O)O)c(C)nc1CO	Heart	mmHg	-0.19
CC(=O)NC(CSCc1nc(C)c(CO)nc1C)C(=O)O (stereo in doubt; 4)	Heart	mmHg	-0.7
Cc1nc(CO[C@@H]2O[C@H](C(=O)O)[C@@H](O)[C@H](O)[C@H]2O)c(C)nc1CO (stereo in doubt; 2)	Heart	mmHg	-0.76
Cc1nc(CSCC(N)C(=O)O)c(C)nc1CO (stereo in doubt; 3)	Heart	mmHg	-0.09
Cc1nc(CO)c(C)nc1CO	Heart	mmHg	-0.19

----------
Tested on: Heart
experiment-notes: Positive inotropic activity in Sprague-Dawley rat heart assessed as left ventricular systolic pressure at 100 umol/L (reference value: 20.7 +/- 7.61 to 25.86 +/- 9.41 mmHg)
Assay type: functional, Heart left ventricle
Readings of Activity for the listed compounds

compound	target-or-test-system	output-unit	Activity
Cc1nc(C(=O)O)c(C)nc1CO	Heart	mmHg	28.51
Cc1nc(CO[C@@H]2O[C@H](C(=O)O)[C@@H](O)[C@H](O)[C@H]2O)c(C)nc1CO (stereo in doubt; 2)	Heart	mmHg	23.76
Cc1nc(CSCC(N)C(=O)O)c(C)nc1CO (stereo in doubt; 3)	Heart	mmHg	27.42
CC(=O)NC(CSCc1nc(C)c(CO)nc1C)C(=O)O (stereo in doubt; 4)	Heart	mmHg	22.4

----------
Readings of Retention_time for the listed molecules
experiment-notes: Retention time of the compound by HPLC- MS/MS analysis
Type: physicochemical

molecule	output-unit	Retention_time
Cc1nc(CO[C@@H]2O[C@H](C(=O)O)[C@@H](O)[C@H](O)[C@H]2O)c(C)nc1CO (stereo in doubt; 2)	min	6.687
CC(=O)NC(CSCc1nc(C)c(CO)nc1C)C(=O)O (stereo in doubt; 4)	min	5.705
Cc1nc(CO[C@@H]2O[C@H](C(=O)O)[C@@H](O)[C@H](O)[C@H]2O)c(C)nc1CO (stereo in doubt)	min	6.71
Cc1nc(CSCC(N)C(=O)O)c(C)nc1CO (stereo in doubt)	min	2.988
Cc1nc(CSCC(N)C(=O)O)c(C)nc1CO (stereo in doubt; 3)	min	3
CC(=O)NC(CSCc1nc(C)c(CO)nc1C)C(=O)O (stereo in doubt)	min	5.709
